# method: Primary qHTS to identify inhibitors of SARS-CoV-2 cell entry (AID 1645846); also: nearly all actives have a fitted effect of over 45% in size
# condition.notes: SARS-CoV-2 pseudovirus cell entry assay, luminescence
Records with an inconclusive call do not appear. Activity calls are given as the source filed them. Calls follow the shape of the full dose curve.
API: response.call in active, inactive

Before answering, review these 6 worked examples.
compound	discrete.label
O=C(CCCCCCC(=O)N/N=C/c1ccc(N(c2ccccc2)c2ccccc2)cc1)NO	active
CN1C(=O)[C@]23C[C@H]4C(C)(C)[C@]5(CNc6c5ccc5c6OC=CC(C)(C)O5)C[C@@]41CN2CC[C@@]3(C)O	inactive
C[C@@H]1[C@H](O)[C@@H](C)/C=C/C=C/C=C/C=C/C=C/C=C/C=C/[C@H](O[C@@H]2O[C@H](C)[C@@H](O)[C@H](N)[C@@H]2O)C[C@@H]2O[C@](O)(C[C@@H](O)C[C@@H](O)[C@H](O)CC[C@@H](O)C[C@@H](O)CC(=O)O[C@H]1C)C[C@H](O)[C@H]2C(=O)O	inactive
CCN(CC)CCNC(=O)c1c(C)[nH]c(/C=C2/C(=O)Nc3ccc(-c4csc(-c5ccccc5)n4)cc32)c1C	active
CCn1c(=O)c2c(nc(/C=C/c3ccc(OC)c(OC)c3)n2C)n(CC)c1=O	inactive
COc1cccc(Nc2ncnn3ccc(CN4CC[C@@H](N)[C@H](O)C4)c23)c1	inactive

Ask: Can you look up the reported call for CC(C)N[C@@H]1CCn2c(=O)[nH]c3cccc(c32)[C@H]1O for me?
Reply: inactive

Ask: Can you look up the reported call for COc1cc([C@@H]2c3cc4c(cc3[C@@H](O[C@@H]3O[C@@H]5CO[C@@H](C)O[C@H]5[C@H](O)[C@H]3O)[C@H]3COC(=O)[C@H]23)OCO4)cc(OC)c1OP(=O)(O)O for me?
Reply: active

Ask: Can you look up the reported call for CCCCCCCCCCC(=O)O[C@H]1CC[C@H]2[C@@H]3CCC4=CC(=O)CC[C@]4(C)[C@H]3CC[C@]12C for me?
Reply: inactive

Ask: Can you look up the reported call for CC(C)c1cc(CNc2nc(Nc3cc(C4CC4)[nH]n3)cc(N3CCN(C)CC3)n2)on1 for me?
Reply: active

Ask: Can you look up the reported call for C[C@H]1[C@H](C)CC[C@]2(C(=O)O)CC[C@]3(C)C(=CC[C@@H]4[C@@]5(C)C[C@@H](O)[C@H](O)[C@@](C)(CO)[C@@H]5CC[C@]43C)[C@H]12 for me?
Reply: inactive

Ask: Can you look up the reported call for COc1nc(OCc2cccc(-c3ccccc3)c2C)ccc1CNCCNC(C)=O for me?
Reply: active

Ask: Can you look up the reported call for CCc1nc(C(N)=O)c(Nc2ccc(N3CCC(N4CCN(C)CC4)CC3)c(OC)c2)nc1NC1CCOCC1 for me?
Reply: active
